These data points were gathered from patent US8691993B2.

Test system: Th2 cells
Experiment: DK-PGD2-Induced IL-13 Production Assay in Th2 Cells
Type: cell-based
Conditions: inhibition of IL-13 production; human Th2 cells; 500 nM DK-PGD2; 4 hrs at 37° C.; ELISA
Experimental: DK-PGD2-Induced IL-13 Production Assay in Th2 Cells Inhibition of 13,14-dihydro-15-keto Prostaglandin D2 (DK-PGD2)-induced IL-13 production in T helper type 2 (Th2) cells was applied to evaluate compound cellular potency. […] The spontaneous production of IL-13 by Th2 cells was determined in the absence of DK-PGD2 stimulation and the value was subtracted from that in the presence of each compound for percent inhibition and IC50 calculations. […]
measured-metric: IC50

compound: Cc1c(CC(=O)O)cc2ccc(F)cc2c1C1CCN(C(=O)Cc2ccccc2)CC1
measured-metric: IC50
val: 117 nM
--
compound: Cc1c(CC(=O)O)cc2ccc(F)cc2c1C1CCN(C(=O)Nc2ccccc2Cl)CC1
measured-metric: IC50
val: 59 nM
--
compound: Cc1c(CC(=O)O)cc2ccc(F)cc2c1C1CCN(S(C)(=O)=O)CC1
measured-metric: IC50
val: 142 nM
--
compound: Cc1c(CC(=O)O)cc2ccc(F)cc2c1C1CCN(C(=O)c2c(Cl)cccc2Cl)CC1
measured-metric: IC50
val: 20 nM
